Tgt: Hexose transporter 1 (Plasmodium falciparum)
Assay Method Text: ST_JUDE_LEISH: Cytotoxicity at 2uM final concentration against transgenic Leishmania Mexicana promastigotes LmPfHT that are glucose transport deficient and complemented with the Plasmodium falciparum hexose transporter. Activity is measured by DNA content using SYBR green in vitro
Type: functional
Recorded measurements of inhibition, one per entry
Respond with the figure and its unit, in that order.

1) CC(C)c1ccc(CN2CCCCC(NC(=O)c3cc(-c4cccc(F)c4)cs3)C2)cc1 (centres undefined)	3%
2) COc1ccc2[nH]c(C(=O)Nc3cccc(-c4ccc(CN(C)C)cc4)c3)cc2c1	1.78%
3) Cc1c(Cl)cccc1S(=O)(=O)Nc1ccc(CCN2CCC(N)CC2)cc1	-0.88%
4) Cc1cnc(C(=O)Nc2cccc(-c3ccc(-c4nc5cc(C(F)(F)F)ccc5[nH]4)s3)c2)cn1	5.21%

Continue with the compound presented below.
# query: inhibition of entry Cc1n[nH]c(C)c1C1CCN(CC2CCC(NC(=O)/C=C/c3ccc(Cl)c(Cl)c3)CC2)CC1 (centres undefined)
4.25%
